Origin of the recorded values: patent US20230365568A1

Hi there, I'd appreciate the recorded PAMPA for every entry that follows.

Below, each entry is followed by its recorded PAMPA result.
COMPOUND	PAMPA
O=c1c2cc(F)ccc2n2c(=S)[nH]nc2n1CCN1CCC(F)(F)CC1	234 ×10⁻⁶ cm/s
O=c1c2cc(F)ccc2n2c(=S)[nH]nc2n1CCc1cccnc1	<1 ×10⁻⁶ cm/s
CC(=O)NCCCn1c(=O)c2cc(F)ccc2n2c(=S)[nH]nc12	18.0 ×10⁻⁶ cm/s
O=c1c2cc(F)ccc2n2c(=S)[nH]nc2n1CCCO	222 ×10⁻⁶ cm/s
O=c1c2cc(F)ccc2n2c(=S)[nH]nc2n1CCc1ccc(Cl)cc1	<1 ×10⁻⁶ cm/s

Need PAMPA for each of these compounds.
1. NS(=O)(=O)CCCC(=O)NCCCn1c(=O)c2cc(F)ccc2n2c(=S)[nH]nc12
2. O=C(O)CCC(=O)NCCCn1c(=O)c2cc(F)ccc2n2c(=S)[nH]nc12
3. CN(C)CCn1c(=O)c2cc(F)ccc2n2c(=S)[nH]nc12

**Result**
1: 3.0 ×10⁻⁶ cm/s; 2: <1 ×10⁻⁶ cm/s; 3: 177 ×10⁻⁶ cm/s

Hi team, please reply with PAMPA for each item in this list.
1. O=c1c2ccccc2n2c(=S)[nH]nc2n1CCC(F)(F)F
2. Nc1nnc2n(CCc3ccccc3)c(=O)c3cc(F)ccc3n12
3. CN1CCN(CC(=O)NCCCn2c(=O)c3cc(F)ccc3n3c(=S)[nH]nc23)CC1
4. CCCCn1c(=O)c2ccccc2n2c(=S)[nH]nc12
5. O=C(NCCCn1c(=O)c2cc(F)ccc2n2c(=S)[nH]nc12)C1CCCC1
6. O=C(CN1CCOCC1)NCCCn1c(=O)c2cc(F)ccc2n2c(=S)[nH]nc12
7. O=c1c2cc(F)ccc2n2c(=S)[nH]nc2n1CCC(F)(F)F
8. CC(C)(C)OC(=O)NC1CCC(C(=O)NCCCn2c(=O)c3cc(F)ccc3n3c(=S)[nH]nc23)CC1 (stereo not drawn)

**Result**
1: 82 ×10⁻⁶ cm/s; 2: 885 ×10⁻⁶ cm/s; 3: <1 ×10⁻⁶ cm/s; 4: 77.5 ×10⁻⁶ cm/s; 5: 155 ×10⁻⁶ cm/s; 6: <1 ×10⁻⁶ cm/s; 7: 117 ×10⁻⁶ cm/s; 8: 330 ×10⁻⁶ cm/s

Each of the following entries comes with a recorded value; kindly state PAMPA for each.
1. O=C(NCCCn1c(=O)c2cc(F)ccc2n2c(=S)[nH]nc12)C1CCOCC1
2. CCn1c(=O)c2ccccc2n2c(=S)[nH]nc12
3. CC(CN(C)C)n1c(=O)c2cc(F)ccc2n2c(=S)[nH]nc12 (stereo not drawn)
4. CNC(=S)N1CN(CCc2ccccc2)C(=O)c2cc(F)ccc21
5. CC(C)(C)OC(=O)CC[C@H](NC(=O)OC(C)(C)C)C(=O)NCCCn1c(=O)c2cc(F)ccc2n2c(=S)[nH]nc12

**Result**
8.0 ×10⁻⁶ cm/s
427 ×10⁻⁶ cm/s
186 ×10⁻⁶ cm/s
161 ×10⁻⁶ cm/s
744 ×10⁻⁶ cm/s

====

experiment: Microsomal metabolic stability, rat liver microsomes (RLM); settings: rat liver microsomes
MEASURE NAME: t1/2 (min, RLM)

List the reported t1/2 (min, RLM) of each compound below.
1. O=c1c2cc(F)ccc2n2c(=S)[nH]nc2n1Cc1ccccc1 [compound 52]
2. CCOP(=O)(CCn1c(=O)c2cc(F)ccc2n2c(=S)[nH]nc12)OCC [compound 78]
3. O=C(Cc1cccnc1)NCCCn1c(=O)c2cc(F)ccc2n2c(=S)[nH]nc12 [compound 137]
4. O=C(NCCCn1c(=O)c2cc(F)ccc2n2c(=S)[nH]nc12)C1CCCCN1 (stereo not shown) [compound 112]
5. Cc1ccc(CC(=O)NCCCn2c(=O)c3cc(F)ccc3n3c(=S)[nH]nc23)cc1 [compound 126]
6. CN1CCN(CCn2c(=O)c3cc(F)ccc3n3c(=S)[nH]nc23)CC1 [compound 91]

**Result**
>30 min
>30 min
>30 min
>30 min
23.9 min
>30 min

Provide the reported t1/2 (min, RLM) of each entry below, same order.
1. O=C(Cc1ccccc1C(F)(F)F)NCCCn1c(=O)c2cc(F)ccc2n2c(=S)[nH]nc12 [compound 131]
2. O=C(NCCCn1c(=O)c2cc(F)ccc2n2c(=S)[nH]nc12)C1CCCC1 [compound 108]
3. O=C(Cc1ccc(Br)cc1)NCCCn1c(=O)c2cc(F)ccc2n2c(=S)[nH]nc12 [compound 125]

**Result**
1. 3.7 min
2. >30 min
3. 20.6 min

Please give t1/2 (min, RLM), item by item, for the list that follows.
1. O=C(NCCCn1c(=O)c2cc(F)ccc2n2c(=S)[nH]nc12)C1CCNCC1 [compound 114]
2. CC(C)(C)OC(=O)Nc1ccc(CC(=O)NCCCn2c(=O)c3cc(F)ccc3n3c(=S)[nH]nc23)cc1 [compound 135]
3. O=C(Cc1ccc(O)cc1)NCCCn1c(=O)c2cc(F)ccc2n2c(=S)[nH]nc12 [compound 127]
4. CNC(=S)N1CN(CCc2ccccc2)C(=O)c2cc(F)ccc21 [compound 62]

**Result**
[">30 min", ">30 min", ">30 min", "2.2 min"]
